For each entry below, report its inhibition at 10000 µM value.
# Target System: PLA2 of type I originating from pig pancreas (Sus scrofa, UniProt P00592)
# Construct: originates from pig pancreas (enzyme of type I); from tissue; host or cells: pig pancreas
# Sequence (P00592 23-146): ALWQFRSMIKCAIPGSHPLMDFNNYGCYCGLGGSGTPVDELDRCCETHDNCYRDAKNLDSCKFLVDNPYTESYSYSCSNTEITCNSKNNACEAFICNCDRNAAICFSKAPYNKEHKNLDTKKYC
# Procedure Details: Acellular in vitro inhibition of PLA2 of type I, determination of free fatty acids
# Assay type: biochemical
# Test Settings: Table VII; 10 mM; read-out: percentage inhibition with respect to control
I only need the number, in %, no unit after it.

Prompt: Can you look up the measured inhibition at 10000 µM of COc1ccc2c(c1)c(CC(=O)O)c(C)n2C(=O)c1ccc(Cl)cc1 for me?
Completion: 25.7

Prompt: For C[C@]12CCC(=O)C=C1CC[C@@H]1[C@@H]2[C@@H](O)C[C@@]2(C)[C@H]1CC[C@]2(O)C(=O)CO [Hydrocortisone] then?
Completion: 4.5

Prompt: For C[C@]12C=CC(=O)C=C1CC[C@@H]1[C@@H]2[C@@H](O)C[C@@]2(C)[C@H]1CC[C@]2(O)C(=O)CO then?
Completion: 6.3

Prompt: For CC(C)Cc1ccc(C(C)C(=O)O)cc1 (stereo not drawn) then?
Completion: 40.3

Prompt: For O=C(O)Cc1ccccc1Nc1c(Cl)cccc1Cl then?
Completion: 29.8

Prompt: For CC(=O)Oc1ccccc1C(=O)O then?
Completion: 7

The reported measurements were obtained from patent US20150110907A1.
